Test system: Stap. Aureus CMX 553
test.description: Second in vitro test, MIC in Brain Heart Infusion Broth (BHIB)
Give measured MIC for each item. Keep answers brief.
Use µg/mL as the unit, but write only the number.

Using the record for CCCC(N)C(=O)NC1CCN(c2cc3c(cc2F)c(=O)c(C(=O)O)cn3-c2ccc(F)cc2)C1 (stereo not shown) [Example 26h] , report its MIC.
0.78

Using the record for CCCC(N)C(=O)NC1CCN(c2nc3c(cc2F)c(=O)c(C(=O)O)cn3C2CC2)C1 (stereo not shown) [Example 26p] , report its MIC.
0.39

Using the record for CCC[C@H](NC(=O)CNC(=O)CN)C(=O)NC1CCN(c2nc3c(cc2F)c(=O)c(C(=O)O)cn3-c2ccc(F)cc2F)C1 (stereo partly shown) , report its MIC.
25

Using the record for CCC[C@H](NC(=O)[C@@H](N)CCC)C(=O)NC1CCN(c2nc3c(cc2F)c(=O)c(C(=O)O)cn3-c2ccc(F)cc2F)C1.Cl (stereo partly shown) , report its MIC.
12.5
